Test system: PKC (rat brain mixture)
Protocol Notes: PKC inhibition assay (protocol of Kikkawa, [γ-32P]ATP, histone)
Type: biochemical
Stated Conditions: rat brain mixture of PKC isoforms
Method: Our initial analogs were tested for inhibition of PKC[37],[38] (rat brain mixture) due to its clinical significance and our on-going and complementary work on PKC activators.[7b],[16],[26] […] Whatman filter papers were cut in 1 x 1 inches in dimension and labeled with tube number in pencil. […] "Cocktail 2" was prepared by mixing 310 µL of 10 mM Ca2+, 930 µL of 20 mM Tris, 310 µL of the histone solution, and 310 µL of the PS solution (added only once the assay is ready to be run). […]
Attribute Measured: log10 IC50 (log10 of the value in nM)
Each number you see is log10 of IC50, and the unit inside the log is nM.

[
  {
    "Compound": "CN(C)C1CCc2c3c(c4c5ccccc5n(CCCN)c4c2CC1)C(=O)NC3=O (stereo not drawn) [Compound 14]",
    "Val": 3.20
  },
  {
    "Compound": "CN(C)C1CCc2c3c(c4c5cc(Cl)ccc5n(CCCN)c4c2CC1)C(=O)NC3=O (stereo not drawn) [Compound 13]",
    "Val": 3.46
  },
  {
    "Compound": "NCCCn1c2ccc(Cl)cc2c2c3c(c4c(c21)CCC(O)CC4)C(=O)NC3=O (stereo not drawn) [Compound 10]",
    "Val": 3.41
  },
  {
    "Compound": "NCCCn1c2ccc(Cl)cc2c2c3c(c4c(c21)CCC(N)CC4)C(=O)NC3=O (stereo not drawn) [Compound 11]",
    "Val": 4.10
  },
  {
    "Compound": "CN(C)C1CCc2c(CC3CCNCC3)cc3c(c2CC1)C(=O)NC3=O (stereo not drawn) [Compound 19]",
    "Val": 1.11
  }
]

In the following, a different compound is considered.
// CNC1CCc2c3c(c4c5cc(Cl)ccc5n(CCCN)c4c2CC1)C(=O)NC3=O (stereo not drawn) [Compound 12] : log10 IC50 value = 4.15
